# Tested on: cell-surface Mac-1 adhesion to immobilized fibrinogen (HL-60 cells)
# Test method notes: Mac-1/Fibrinogen cell-based screening assay
# Design: species or system human
# Experimental context: Homo sapiens, HL-60, HL-60 cells; read-out: Mac-1/Fgn Cell based Assay IC50
Measured attribute: pIC50
Remember, pIC50 is on a log scale: it is -log10 of the molar concentration.

As a guide, the following entries are already answered.
O=C(NCc1cccc(O)c1)c1ccc(C(=O)N[C@@H](CNC(=O)c2ccc3ncsc3c2)C(=O)O)c(Cl)c1 [Example 177]	6.80
O=C(NCc1cccc(O)c1)c1ccc(C(=O)N[C@@H](CNC(=O)C2CCCC2)C(=O)O)c(Cl)c1 [Example 101]	7.10

INPUT: Query: pIC50; subject: CN(C)c1cccc(C(=O)NC[C@H](NC(=O)c2ccc(C(=O)NCc3cccc(O)c3)cc2Cl)C(=O)O)c1 [Example 127]
OUTPUT: 7.15

====

# System under test: ICAM-1 binding to immobilized Mac-1 (Homo sapiens, UniProt P05107+P11215)
# Construct: made in house; host or cells: transfected 293 cells (Mac-1)
# Sequence (P05107 23-769, other chains not shown): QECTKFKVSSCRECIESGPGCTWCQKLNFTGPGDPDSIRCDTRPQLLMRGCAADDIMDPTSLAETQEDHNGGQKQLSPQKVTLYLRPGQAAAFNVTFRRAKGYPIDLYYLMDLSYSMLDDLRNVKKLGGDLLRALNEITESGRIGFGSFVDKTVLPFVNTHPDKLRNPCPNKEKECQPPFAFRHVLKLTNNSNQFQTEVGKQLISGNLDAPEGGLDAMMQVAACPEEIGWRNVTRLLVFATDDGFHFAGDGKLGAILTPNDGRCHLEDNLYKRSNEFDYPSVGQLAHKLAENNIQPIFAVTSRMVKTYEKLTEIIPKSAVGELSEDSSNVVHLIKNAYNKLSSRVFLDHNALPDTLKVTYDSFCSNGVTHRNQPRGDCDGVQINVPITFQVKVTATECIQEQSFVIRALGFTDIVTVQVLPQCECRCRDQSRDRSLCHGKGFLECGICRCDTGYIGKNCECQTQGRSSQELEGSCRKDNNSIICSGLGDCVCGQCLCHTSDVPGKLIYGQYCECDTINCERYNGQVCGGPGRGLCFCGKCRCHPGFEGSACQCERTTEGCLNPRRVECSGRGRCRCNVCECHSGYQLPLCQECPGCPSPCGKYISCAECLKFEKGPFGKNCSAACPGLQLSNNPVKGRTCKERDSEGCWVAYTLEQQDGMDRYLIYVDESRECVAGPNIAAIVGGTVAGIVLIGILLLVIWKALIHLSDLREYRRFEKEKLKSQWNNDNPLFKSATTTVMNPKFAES
# Test method notes: Mac-1/ICAM-1 screening assay (solid-phase ELISA)
# Experimental context: read-out: Mac-1/ICAM-1 Protein-Protein Assay IC50
Measured attribute: IC50 (nM)
# number only, unit nM dropped from output

As a guide, the following entries are already answered.
N[C@H]1CC[C@@H](C(=O)NC[C@H](NC(=O)c2ccc(C(=O)NCc3cccc(O)c3)cc2Cl)C(=O)O)CC1 [Example 264]	25
O=C(NCc1cccc(O)c1)c1ccc(C(=O)N[C@@H](CNC(=O)C23CC4CC(CC(C4)C2)C3)C(=O)O)c(Cl)c1 [Example 93]	57
O=C(NCc1cccc(O)c1)c1ccc(C(=O)N[C@@H](CNC(=O)[C@@H]2CCCN2)C(=O)O)c(Cl)c1 [Example 196]	16
O=C(NCc1cccc(O)c1)c1ccc(C(=O)N[C@@H](CNC(=O)c2cc(Br)c(Br)s2)C(=O)O)c(Cl)c1 [Example 158]	20
O=C(NCc1cccc(O)c1)c1ccc(C(=O)N[C@@H](CNC(=O)c2ccno2)C(=O)O)c(Cl)c1 [Example 256]	14

INPUT: Item N=C(N)NC[C@H](NC(=O)c1ccc(C(=O)NCc2cccc(O)c2)cc1Cl)C(=O)O [Example 371] with ICAM-1 binding to immobilized Mac-1 (Homo sapiens, UniProt P05107+P11215) - IC50?
OUTPUT: 73

====

# System under test: ICAM-1 binding to immobilized Mac-1 (Homo sapiens, UniProt P05107+P11215)
# Construct: made in house; host or cells: transfected 293 cells (Mac-1)
# Test method notes: Mac-1/ICAM-1 screening assay (solid-phase ELISA)
# Experimental context: read-out: Mac-1/ICAM-1 Protein-Protein Assay IC50
Measured attribute: pIC50
Remember, pIC50 is on a log scale: it is -log10 of the molar concentration.

CC(C)CC(=O)NC[C@H](NC(=O)c1ccc(C(=O)NCc2cccc(O)c2)cc1Cl)C(=O)O [Example 195]	7.33
O=C(NCc1cccc(O)c1)c1ccc(C(=O)N[C@@H](CNC(=O)c2cc(=O)c3ccccc3o2)C(=O)O)c(Cl)c1 [Example 187]	7.25
O=C(NCc1cccc(O)c1)c1ccc(C(=O)N[C@@H](CNC(=O)c2ccccn2)C(=O)O)c(Cl)c1 [Example 162]	6.98

INPUT: Query: pIC50; subject: O=C(NCc1cccc(O)c1)c1ccc(C(=O)N[C@@H](CNC(=O)c2ccnc3ccccc23)C(=O)O)c(Cl)c1 [Example 184]
OUTPUT: 7.04
